Assay: qHTS assay to identify small molecule agonists of the sonic hedgehog signaling (Shh) pathway - cell viability counter screen (AID 1259366); further: nearly all actives have a fitted effect of over 50% in size
Conditions: NIH/3T3 Gli1-Luc viability, CellTiter-Fluor, 24 h; series mostly up to 92.4 µM
Records with an inconclusive call do not appear. The source made the active and inactive calls. The call rests on the fitted dose curve; in most records, active means well fitted cell-killing curve with a large enough effect in the repeat runs; inconclusive means weak or mixed curves, or effect the other way; inactive means flat fitted curve, though single readings scatter.
Classes used: class 1 (active), class 0 (inactive)

[
  {
    "molecule": "O=C(Nc1ccccc1-c1ccc(Cl)cc1)c1cccnc1Cl",
    "qualitative.label": "class 0"
  },
  {
    "molecule": "Clc1ccccc1-c1ccccc1Cl",
    "qualitative.label": "class 0"
  },
  {
    "molecule": "Oc1c(I)cc(I)cc1I",
    "qualitative.label": "class 0"
  },
  {
    "molecule": "COc1ccc(C(c2ccc(OC)cc2)C(Cl)(Cl)Cl)cc1",
    "qualitative.label": "class 0"
  },
  {
    "molecule": "CC(c1ccccc1)(c1ccc(O)cc1)c1ccc(O)cc1",
    "qualitative.label": "class 1"
  },
  {
    "molecule": "CC1COC(Cn2cncn2)(c2ccc(Oc3ccc(Cl)cc3)cc2Cl)O1 (stereo not drawn)",
    "qualitative.label": "class 0"
  },
  {
    "molecule": "Cc1cc(C(C)(C)c2ccc(O)c(C)c2)ccc1O",
    "qualitative.label": "class 1"
  },
  {
    "molecule": "O=[N+]([O-])c1c(Cl)c(Cl)cc(Cl)c1Cl",
    "qualitative.label": "class 0"
  }
]

* * *

Assay: A CellTox Green Cytotoxicity Assay to monitor cytotoxicity in HEK293 cells - 24 hour (AID 1224875); further: nearly all actives have a fitted effect of over 45% in size
Details: CellTox Green fluorescence; series mostly up to 76.8 µM
Results filed as inconclusive are left out. Calls of active or inactive are those of the source. Calls come from the whole dose curve; as a rule, active = well fitted activation curve with a large enough effect in the repeat runs; inconclusive = weak or mixed curves; inactive = flat fitted curve, though single readings scatter.
Outcomes: 1.0 (active), 0.0 (inactive)

[
  {
    "molecule": "CC1COC(Cn2cncn2)(c2ccc(Oc3ccc(Cl)cc3)cc2Cl)O1 (configuration not stated)",
    "qualitative.label": 0.0
  },
  {
    "molecule": "CN1CSC(=S)N(C)C1",
    "qualitative.label": 0.0
  },
  {
    "molecule": "COc1cc(OC)c(OC)cc1C=O",
    "qualitative.label": 0.0
  },
  {
    "molecule": "N#Cc1cc([N+](=O)[O-])ccc1N",
    "qualitative.label": 0.0
  },
  {
    "molecule": "O=C1C(I)=CC(=C(c2cc(I)c(O)c(I)c2)c2ccccc2C(=O)O)C=C1I",
    "qualitative.label": 0.0
  },
  {
    "molecule": "Cc1nnc2n1-c1sc(CCc3ccc(CC(C)C)cc3)cc1C(c1ccccc1Cl)=NC2C (configuration not stated)",
    "qualitative.label": 0.0
  },
  {
    "molecule": "Nc1ccc([N+](=O)[O-])cc1",
    "qualitative.label": 1.0
  },
  {
    "molecule": "Cc1cc(C)c(C(=O)P(=O)(c2ccccc2)c2ccccc2)c(C)c1",
    "qualitative.label": 0.0
  },
  {
    "molecule": "OC(Cc1ccccc1Cl)(Cn1[nH]cnc1=S)C1(Cl)CC1 (configuration not stated)",
    "qualitative.label": 0.0
  },
  {
    "molecule": "OCC(c1ccc(Cl)cc1)c1ccc(Cl)cc1",
    "qualitative.label": 1.0
  },
  {
    "molecule": "COc1ccc(C(c2ccc(OC)cc2)C(Cl)(Cl)Cl)cc1",
    "qualitative.label": 0.0
  },
  {
    "molecule": "Clc1ccccc1-c1ccccc1Cl",
    "qualitative.label": 1.0
  }
]
